Catalogue of molecules with associated solubility
assay: DMPK Wave1: aqueous solubility; format: physicochemical; settings: aqueous
A number alone suffices; assume µM.

C=CC(=O)N1C[C@H](Nc2ncnc3[nH]ccc23)CC[C@@H]1C [Ritlecitinib, reference compound] ... 996

Please look up its solubility: "CS(=O)(=O)N1CCC[C@@H]2[C@@H](c3cncnc3)[C@@H]21"
823

###

assay: DMPK Wave1: lipophilicity (measured logD); type: physicochemical
Measured parameter: logD

// worked examples, logD included
C=CC(=O)N1C[C@H](Nc2ncnc3[nH]ccc23)CC[C@@H]1C [Ritlecitinib, reference compound] ... 1.6
CS(=O)(=O)N1CC2(CC2c2cncnc2)C1 (stereo not drawn) ... -0.6
CS(=O)(=O)N1C2CCC1CC1(C2)CC1c1cncnc1 (stereo not drawn) ... 0.5
CS(=O)(=O)N1CCC2(CC1)CC2c1cncnc1 (stereo not drawn) ... 0.2
Cc1noc(C)c1S(=O)(=O)N1CCC2(CC1)CC2c1cnc2[nH]ccc2c1 (stereo not drawn) ... 3.6
COc1cc([C@H]2[C@@H]3CN(C(=O)Cc4c[nH]c5ccccc45)CC[C@@H]32)ccn1 ... 3.1

Please look up its logD: c1ncc(C2CC23CCN(c2ccc4c(c2)OCO4)CC3)cn1 (stereo not drawn)
0.1

Please look up its logD: "CS(=O)(=O)N1CCC[C@@H]2[C@@H](c3cncnc3)[C@@H]21"
0.1

Please look up its logD: CS(=O)(=O)N1CCC2CC21c1cncnc1 (stereo not drawn)
-0.4

###

experiment: DMPK Wave1: aqueous solubility; assay type: physicochemical
Please mark yes (1) if the recorded solubility is equal to or greater than 900 µM, and no (0) if it falls below.

Study these solved cases before continuing.
Cc1noc(C)c1S(=O)(=O)N1CCC2(CC1)CC2c1cnc2[nH]ccc2c1 (stereo not shown) ... no (0)
COc1cc([C@H]2[C@@H]3CN(C(=O)Cc4c[nH]c5ccccc45)CC[C@@H]32)ccn1 ... no (0)
CS(=O)(=O)N1C2CCC1CC1(C2)CC1c1cncnc1 (stereo not shown) ... yes (1)

solubility >= 900 µM for CS(=O)(=O)N1CCC2(CC1)CC2c1cncnc1 (stereo not shown) ?
yes (1)

###

experiment: DMPK Wave1: aqueous solubility; format: physicochemical
Measured parameter: solubility (µM)
A number alone suffices; assume µM.

// worked examples, solubility included
CS(=O)(=O)N1CC2(CC2c2cncnc2)C1 (stereo not drawn) [Compound 88] ... 913
c1ncc(C2CC23CCN(c2ccc4c(c2)OCO4)CC3)cn1 (stereo not drawn) [Compound 82] ... 887

Now for the compound whose solubility we want.
Please look up its solubility: CS(=O)(=O)N1CCC2CC21c1cncnc1 (stereo not drawn) [Compound 86]
881
